Reference for the values: patent US20190071480A1

Target: T1, extracellular domain of activin receptor type IIB (ActRIIBecd), biotinylated (Homo sapiens (Human), UniProt Q13705 27-117, amino-biotinylated with amine-PEG3-Biotin)
T1 construct: immobilised on a streptavidin-coated sensor chip; also called biotinylated ActRIIBecd; extracellular domain of ActRIIB
T1 sequence: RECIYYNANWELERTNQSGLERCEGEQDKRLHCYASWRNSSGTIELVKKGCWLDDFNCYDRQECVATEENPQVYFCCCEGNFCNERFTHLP
Experiment: BIAcore SPR, biotinylated ActRIIBecd on chip; SD ±16.78 nM
Measurement label: pKd
// pKd: -log10(molar conc.)

# input Could you tell me which pKd is on file for VDFSDVGWNDHAVAPPGYHAFYCHGECPFPLADHLNSTNHAIVQTLVNSV [Clone No. 18 domain (ActRIIBecd-associated polypeptide)] ?
# output 7.19
